Data origin, for the record: patent EP1144402B1

Assayed Target: NK1 receptor (Homo sapiens, UniProt P25103)
Sequence (P25103 whole entry, species assumed): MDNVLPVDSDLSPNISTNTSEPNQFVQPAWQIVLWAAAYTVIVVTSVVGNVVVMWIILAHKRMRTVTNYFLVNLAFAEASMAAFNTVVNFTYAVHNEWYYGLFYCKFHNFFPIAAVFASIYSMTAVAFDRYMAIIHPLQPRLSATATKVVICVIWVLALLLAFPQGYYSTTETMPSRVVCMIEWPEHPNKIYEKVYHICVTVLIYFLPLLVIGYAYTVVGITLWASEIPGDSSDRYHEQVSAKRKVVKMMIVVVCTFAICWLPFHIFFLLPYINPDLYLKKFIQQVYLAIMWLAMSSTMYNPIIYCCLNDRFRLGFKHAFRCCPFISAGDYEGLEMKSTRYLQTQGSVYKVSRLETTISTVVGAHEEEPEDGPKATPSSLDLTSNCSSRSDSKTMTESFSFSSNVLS
# reported Ki; entries follow
Field format: number, assumed nM, no unit text.

CO/N=C(\CN(C)C(=O)c1cc(Cl)cc(Cl)c1)[C@H](CCN1CCC(n2c(=O)[nH]c3ccccc32)CC1)c1ccc(Cl)c(Cl)c1 [Example 18A] | 1.2

## Input Would you mind telling me what Ki value was observed for "CO/N=C(\CN(C)C(=O)c1cc(Cl)cc(Cl)c1)[C@H](CCN1CCC(N2CCCN(Cc3nn[nH]n3)C2=O)CC1)c1ccc(Cl)c(Cl)c1" ?
## Output 1

----------
Assayed Target: NK2 receptor (Homo sapiens, UniProt P21452)
Sequence (P21452 1-398): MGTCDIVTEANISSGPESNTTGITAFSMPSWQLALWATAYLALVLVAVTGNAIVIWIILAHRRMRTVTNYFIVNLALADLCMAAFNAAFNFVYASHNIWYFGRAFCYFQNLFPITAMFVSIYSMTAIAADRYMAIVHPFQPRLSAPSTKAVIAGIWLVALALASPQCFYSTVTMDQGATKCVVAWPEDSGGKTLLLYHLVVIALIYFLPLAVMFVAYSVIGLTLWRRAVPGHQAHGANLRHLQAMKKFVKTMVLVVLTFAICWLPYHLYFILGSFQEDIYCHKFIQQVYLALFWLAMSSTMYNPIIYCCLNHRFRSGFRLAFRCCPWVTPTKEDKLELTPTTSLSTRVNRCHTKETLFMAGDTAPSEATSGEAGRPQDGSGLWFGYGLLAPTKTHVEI
Procedure Text: neurokinin receptor binding assay (NK2)
Readout Label: Ki (pM)
Field format: number, assumed pM, no unit text.

## Input Notebook entry, NK2 receptor (Homo sapiens, UniProt P21452) assay: Ki of CO/N=C(\CN(C)C(=O)c1cc(Cl)cc(Cl)c1)[C@H](CCN1CCC(n2c(=O)[nH]c3ccccc32)CC1)c1ccc(Cl)c(Cl)c1 [Example 18A] = ?
## Output 1000

## Input Notebook entry, NK2 receptor (Homo sapiens, UniProt P21452) assay: Ki of "CO/N=C(\CN(C)C(=O)c1cc(Cl)cc(Cl)c1)[C@H](CCN1CCC(N2CCCN(Cc3nn[nH]n3)C2=O)CC1)c1ccc(Cl)c(Cl)c1" = ?
## Output 900
